# System: M1 mAChR (Rattus norvegicus)
# Assay Notes: biochemical
# Condition Parameters: KH, with brucine 0.1 mM
Property Measured: Ki (pM)
Report the figure in pM without appending any unit label.

For the molecule shown here, C[C@@H]1SC2(CCN(C)CC2)CN1C(=O)CCc1c[nH]c2ccccc12 (single isomer, unassigned) [AF710B] , give the reported Ki. 34

====

# System: UniProt P08482
# Assay Notes: biochemical
# Condition Parameters: KL, with brucine 0.1 mM
Property Measured: pKi
// pKi: -log10(molar conc.)

Recorded pKi of C[C@@H]1SC2(CCN(C)CC2)CN1C(=O)CCc1c[nH]c2ccccc12 (single isomer, unassigned) [AF710B] , please. 4.82

====

# System: sigma 1 receptors (Cavia porcellus, UniProt Q60492)
# Construct: displacement assay of tritiated-pentazocine from guinea-pig cerebral cortex; from tissue; host or cells: guinea-pig cerebral cortex
# Sequence (Q60492 whole entry): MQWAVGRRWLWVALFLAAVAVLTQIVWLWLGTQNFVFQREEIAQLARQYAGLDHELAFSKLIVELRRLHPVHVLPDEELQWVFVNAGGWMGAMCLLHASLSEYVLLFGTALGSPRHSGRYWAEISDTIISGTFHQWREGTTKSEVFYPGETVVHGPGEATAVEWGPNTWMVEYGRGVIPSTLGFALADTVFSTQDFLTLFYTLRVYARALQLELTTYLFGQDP
# Assay Notes: Displacement of tritiated-pentazocine from guinea-pig cerebral cortex
# Type: binding
# Condition Parameters: read-out: sigma 1 receptors KH
Property Measured: Ki
// unit must come after the numeric part

Request the reported Ki associated with C[C@@H]1SC2(CCN(C)CC2)CN1C(=O)CCc1c[nH]c2ccccc12 (single isomer, unassigned) [AF710B] 1.4 nM

====

# System: M1 mAChR (Rattus norvegicus, UniProt P08482)
# Sequence (P08482 1-460): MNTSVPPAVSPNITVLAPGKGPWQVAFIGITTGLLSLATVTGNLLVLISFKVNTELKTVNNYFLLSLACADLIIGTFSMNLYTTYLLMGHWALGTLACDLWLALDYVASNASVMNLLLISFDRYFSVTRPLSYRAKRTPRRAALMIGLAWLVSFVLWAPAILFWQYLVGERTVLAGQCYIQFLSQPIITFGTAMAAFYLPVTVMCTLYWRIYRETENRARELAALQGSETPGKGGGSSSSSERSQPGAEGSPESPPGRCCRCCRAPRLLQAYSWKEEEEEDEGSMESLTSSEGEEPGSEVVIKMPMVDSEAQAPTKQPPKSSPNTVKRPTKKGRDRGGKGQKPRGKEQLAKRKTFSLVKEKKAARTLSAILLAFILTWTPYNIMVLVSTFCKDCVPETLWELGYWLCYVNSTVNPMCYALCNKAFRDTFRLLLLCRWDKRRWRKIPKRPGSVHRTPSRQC
# Assay Notes: biochemical
Property Measured: Ki (nM)
Numeric only. Scale: nM

Quick one: Ki of C[C@@H]1SC2(CCN(C)CC2)CN1C(=O)CCc1c[nH]c2ccccc12 (single isomer, unassigned) [AF710B] ? 0.046
